Catalogue of OD490 values
- Tested Target: T1, anti-myc antibody coated on the ELISA plate
- T1 construct: also called a-MYC; a-myc
- Measurement Notes: phage ELISA, anti-myc coated

Binder	OD490 (OD)
ACVR2B B08 (monoclonal scFv-phage) (scFv, V domains shown, also called B8) VH: VQLVQSGGGLVHPGQSLRLSCTGSGFPFGDYSMTWVRQAPGKGLEWVGLVRSKAYGGTTEYAASVKGRFIMSRDDSRSIAYLQMNSLRAEDTAVYYCARGHYGMDVWGQGTTVTVSS VL: DIQMTQSPSSVSASVGDRVTITCRASQGISNWLAWYQQKPGKAPKLLIYAASSLQSGVPSRFSGSGSGTDFTLTISSLQPEDFATYYCQQAKSYPYTFGQGTKVEIK	1.16
ACVR2B B12 (monoclonal scFv-phage) (scFv, V domains shown) VH: VQLVQSGAEVKKPGESLKISCKTSGYTFTHYWIGWVRQMPGKGLEWMGRINPTDSYADYSPSFQGHVIMSVDKSVSTAYLHWNSLKASDTAMYYCARGTALGVWGQGTTVTVSS VL: IQMTQSPSAMSASVGDRVTITCRASQGISNYLAWFQQKPGKVPKRLIYAASSLQSGVPSRFSGSGSGTEFTLTITSLQPEDFATYYCLQHKSYPYTFGQGTKLEIK	1.46
ACVR2B C08 (monoclonal scFv-phage) (scFv, V domains shown, also called C8) VH: VQLVESGGGLVQPGGSLRLSCSASGFTFSSYAMHWVRQAPGKGLEYVSAISSNGGSTYYADSVKGRFTISRDNSKNTLYLQMNSLRAEDTAVYYCAKTYGGYGNAFDIWGQGTMITVSS VL: DIQMTQSPSSVSASVGDRVTITCRASQGISRWLAWYQQKPGKAPKLLIYAASNLQSGVPSRFSGSGSGTDFTLTINSLQPEDFATYFCQQGKSFPYTFGPGTKVEIK	1.17
ACVR2B F08 (monoclonal scFv-phage) (scFv, V domains shown, also called F8) VH: VQLVESGGGLVQPGGSLRLSCAASGFTFSDHYMDWVRQAPGKGLEWVGRTRNKANSYTTEYAASVKGRFTISRDDSKNSLYLQMNSLRAEDTAVYYCTKGAWLDYWGQGTLVTVSS VL: IQMTQSPSAMSASVGDRVTITCRASQGISNYLAWFQQKPGKVPKRLIYGASSLQGGVPSRFSGSGSGTEFTLTITSLQPEDFATYFCLQHKSYPLTFGPGTKVEIK	0.783
ACVR2B A09 (monoclonal scFv-phage) (scFv, V domains shown, also called A9) VH: VQLVESGGGLVQPGRSLRLSCAASGFTFDSYWMSWVRQAPGKGLEWVANIKYDGSEKHYMDSVKGRFTISRDNAKNSVYLQMNSLRAEDTAVYYCAKGAWLDYWGQGTQVTVSS VL: IQMTQSPSAMSASVGDRVTITCRASQGISNYLAWFQQKPGKVPKRLIYAASSLQSGVPSRFSGSGSGTGFTLTITSLQPEDFATYYCLQHKSYPYTFGQGTKLEIK	1.17
ACVR2B A06 (monoclonal scFv-phage) (scFv, V domains shown, also called A6) VH: VQLVQSGGGLVQPGRSLRLSCTASGFTFGDYAMSWVRQAPGKGLEWVGFIRSKRYDGTAEYAASVKGRFTISRDDSKNSLYLQMNSLRAEDTAVYYCARGHYAMDVWGQGTTVTVSS VL: DIQMTQSPSSLSASVGDRVTITCRASRSISNYLNWYQQKPGKAPKLLIYAASSLQSGVPSRFSGSGSGTDFTLTISSLQPEDFATYYCQQSYDTPFTFGLGNQLEIK	0.703
ACVR2B D11 (monoclonal scFv-phage) (scFv, V domains shown) VH: MQLVQSGGGLVQPGRSLGLSCTASGFTFGDYAMSWVRQAPGKGLEWVGFIRSKAYGGTTEYAASVKGRLTISRDDSKSIAYLQMNSLRAEDTAVYYCARGHYGMDVWGQGTTVTVSS VL: DIQMTQSPSSLSASVGDRVTITCRASQNISNFLNWYQQKPGKAPKLLIYSASRLQRGVPSRFSGSGSGTDFTLTISSLQPEDFATYYCQQSYSTPYTFGQGTKLEIK	0.833
